Where do the numbers come from? From ChEMBL document CHEMBL1944546.

System: Streptococcus pneumoniae
experimental-details: Antibacterial activity against penicillin-, constitutive MLS-resistant Streptococcus pneumoniae PU 11 by broth microdilution method
Type: functional
measured-metric: MIC (µg/mL)
Express your answer in µg/mL, writing the number without its unit.

Answered examples (3):
structure-as-smiles	measured
CC[C@H]1OC(=O)[C@H](C)[C@@H](OCC#Cc2cccnc2)[C@H](C)[C@@H](O[C@@H]2O[C@H](C)C[C@H](N(C)C)[C@H]2O)[C@](C)(OC)C[C@@H](C)/C(=N\OCc2ccccc2Cl)[C@H](C)[C@H]2OC(=O)O[C@@]21C	32
CC[C@H]1OC(=O)[C@H](C)[C@@H](OC/C=C/c2cccnc2)[C@H](C)[C@@H](O[C@@H]2O[C@H](C)C[C@H](N(C)C)[C@H]2O)[C@](C)(OC)C[C@@H](C)/C(=N\OCc2ccccc2Cl)[C@H](C)[C@H]2OC(=O)O[C@@]21C	16
CC[C@H]1OC(=O)[C@H](C)[C@@H](OC/C=C/c2cncc3ccccc23)[C@H](C)[C@@H](O[C@@H]2O[C@H](C)C[C@H](N(C)C)[C@H]2O)[C@](C)(OC)C[C@@H](C)/C(=N\OCc2ccccc2Cl)[C@H](C)[C@H]2OC(=O)O[C@@]21C	32

Proceed to the following item.
# query: MIC of entry `CC[C@H]1OC(=O)[C@H](C)[C@@H](O/C=C\Cc2cncnc2)[C@H](C)[C@@H](O[C@@H]2O[C@H](C)C[C@H](N(C)C)[C@H]2O)[C@](C)(OC)C[C@@H](C)/C(=N\O)[C@H](C)[C@@H](O)[C@]1(C)O`
128
